These measurements were taken from the NTF2 design screens of Basanta et al. (2020).

assay: protease stability score; higher = more stable; yeast display proteolysis, trypsin and chymotrypsin;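 further: relative to predicted unfolded state with 0 unfolded-like and 1 meaning tenfold more protease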
// label = y if protease stability score is not less than 1, otherwise n

sequence	answer.label
SEDEHRSHLLLKEFEHLMRTGNEEEIERNLDPHTRLEFNGREFHGREDAREVWRRFGFKHLDSLRFHHLEIQGDKIIIDSRTEMLFNGVHTITRVEFHALKIDGRWLSTELRIG	n
DERHEDIKKFMELVLRLAKTGDEDHFSNMVDPHARLEIGDKHYIGRELVSTLFHEIRLHDMKIHNIISYGDKVKADVRLDIEFDGRRWNINTLLIIHKVNGQWLLESERRH	y
SEDEEAIRHALRIFEEVLQTGDEHSIENLFDPNTRIDINGKHLHGWHKLEEWLSRFDHLEVHVHIHSSNVFDGRIHNDTRVKMHLYINGKIIELHQETHIISKKVNGRWYVKMIIIR	y
DELEELLQRAIKMFKDTNETGDEETLEKLLDPNVRYQVGDKEFHGREAIHVIFRRADHWKEMRIRSFRVYDGRAELDVEEVIFYNGVEIRTRTRIHFRKVDGRWYVHSIEIS	y
DEEEKEIRHQAEHWFHIILTGDEDTLRNLADPNVRSVWVIGDYERHEHGMDEHNKILKEWRFEEYRRDSIHAINGRVHLDIRSVMTINGKRMSFRIHIDIHVVNGVRKSITIRIE	n
TEEEEAKHLAQRIIEEDLRTGDWSRELRQIDPDVKTRVGDKTFHGMSALHYLLKQIDHPKSFTTHHIEVQGDKIKIDGELEGNINGVRTKIHTIFIVRKVNGRWLVETIIFE	y
SEEEELALRFWHELTHYRETGDEESLLKYVDPHVRLDVNGKDIHGMEEIARFLVEIRVKIETHVHDIKLINGKIHMDVRLHIEFDIDGKNVKRRHESRVIVRKVNGKWIIKTFELT	n
REEEKDEERMVHELMEWHRTGDEKTLNELLDPNARFIINGKHIHGREVFNEEVKRLGFRIEEYHLRRVRIYDGRIEFETEIDGEVNGRRLHIETRFHAIKINGQWRLKHIEFH	y
NEEKELWHKDIEDLQRDWKTGDEDSVREQLDPDVRLDINGVEIIGMEEATRFIIELMREIRIHVNLERIIIQGDKIILHGNLVVEQGDKHHITRQTIDARKVDGRWFEHKVRVE	n
DEEEDRLRRLAKTLLENWVTGDEEMHQRFADPNTRLNVDVDGKEIHRHGREEMLKDLRHELERVDHWELRLRDMKIFDGVVDIDGELILNINGKVIRQEVRIIMVIVNGRLRSVHFQVH	y
DERTHHLEQLYRRMYEHWETGDEKFHRELLDPHARVDINGQDVHGMHWIEEEMRMQREHIRIEHVIIKSIEIVDGKIHMNGIILGDINGRRVNVEVRFHVIIINGKARLVEVKIL	n
DDSSELLRKLLEELLRAYKTGDFDTLIEFFDPDVKLEFNGREVHGMDHFISEHRHFIRRFPGIRIHIDDVKWHTQGDKAQLHMDGTEDFDGKRRRVELIFIIEKFDGRWFFSSIRWHNI	y
SEHEEVASRVTTEIIHNLLTGDWQRTTELMDPNTKLDVNGQHHHGWELYHKVLREWHEELRVHDMKEHDLKVIDGVAFSNMRVDIEINGVRFETEIRIIVVVVNGRIKSISFESK	n
TKEEEESRHWSELMFHLEETGDEEILKDLADPHVKIHVNGVHLHGMEKLEEWRRRLGITKFDSHLHDFRVQGEKMHNIVHLHINGQKIDAHIIIIIVDGKITRIIIRIT	n
SEDHEAAHDMLELLRHMELTGDENSLMDLLDPNAKNDVDGKVSVGREEWLRMVHFLLTRFDHIKSIEVEESRHIDGRLNYQTRLRGTVNGQDVELRTEWIVIKVNGKWFLHKVRFV	y
DEDTEQLEWILKLHLEISRTGDEHSEHHMVDPNTRIEVGDKELHGREEIVKWFAHIRIDHIDIKRYHIFNGRVRIDGRVEGNVDGRETTMRVIFLSDKFNGRWRHRSVIVR	y
SEEHDKLQRLIRQWWSEFETGDEDKLTEMFDPHARLHIDGRDVIGRENVSKFVFDFFFEMRIHRTHIEHVDAQGDFLILHYHVRGTVNGRESDIHVLIIFTVVNGRMKSVHVHNE	y
DEEEERLEELSKLLLEMVLTGNWDETLELADPHALIEIGDKRFHGWEHWVKLYLRIKNVRFELRIDSVRPIGDKAEIDGHVIIRIGDKEKEFDLRVEIDVVDGRLKENSIRRR	y
DEDHRLAVHISKMFEHAESTGDFEISERMADPHTKIDIGDKHYHGMEEWVRFLRELRLSTDHIEIKDSKRYNGRLIIHSRTRITLNVNGKTIDFEIDVTFIFEKVNGRWKLHMYRFD	n
SEEEKHIIELFEIWLEAIRTGDENLLLKLADPHYRVIIDVGNKHIHRHGWKEFMEWLRHFTREMRIRHLTLRDYRAVNGVFHADTESVEEIGEFELRTRMHIVLVIINGVFHSVRHKIE	y
SELEEEVRRAVTFWLEALMTGDEESVSHMLDPNVRVDIDGRDLHGREKMIETMKHIRIKHIELTSIKVINGRAHIHTKVDGEFNGRRDTLDVEIIITKINGKWVVKEVNVK	y
